assay: Cmax in dog at 30 mg/kg; format: ADME, organism-based, Canis lupus familiaris; set-up: dose 30 mg/kg; conditions: in vivo
Quantity measured: Cmax
Answers without a unit are incomplete; give the number and then its unit.

The value of Cmax measured for the compound Cc1nc(N2CCN(C)CC2)c2nc(-c3ccccc3Cl)n(C(C)CO)c2n1 (stereo unspecified) turned out to be 7540 ng/mL

====

molecular target: UniProt P20272; assay: Displacement of [3H]HU-243 from CB1 receptor of rat brain synaptosomal membranes
Sequence (P20272 whole entry): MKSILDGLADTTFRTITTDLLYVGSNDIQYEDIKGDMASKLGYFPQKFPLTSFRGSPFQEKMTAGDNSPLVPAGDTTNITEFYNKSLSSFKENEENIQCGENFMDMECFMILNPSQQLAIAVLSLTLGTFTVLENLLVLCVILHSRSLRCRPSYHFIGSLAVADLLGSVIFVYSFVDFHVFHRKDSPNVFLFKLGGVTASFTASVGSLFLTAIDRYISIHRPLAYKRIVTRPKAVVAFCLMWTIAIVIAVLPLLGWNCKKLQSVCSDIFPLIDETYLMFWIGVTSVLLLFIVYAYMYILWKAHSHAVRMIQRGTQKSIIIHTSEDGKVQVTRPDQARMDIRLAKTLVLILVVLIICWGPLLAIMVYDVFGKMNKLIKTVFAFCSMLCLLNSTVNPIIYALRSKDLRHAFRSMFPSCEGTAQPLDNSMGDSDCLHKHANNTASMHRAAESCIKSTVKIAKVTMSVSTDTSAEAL
Quantity measured: Ki

The value of Ki measured for the molecule `CCCCCCC(C)(C)c1cc(OC)c([C@H]2C=C(CO)[C@H]3C[C@@H]2C3(C)C)c(OC)c1` turned out to be > 10 µM
